# Test system: IGROV-1
# experiment: Anticancer activity against human IGROV-1 cells assessed as cell growth inhibition incubated for 48 hrs by SRB assay
# Format: functional
# protocol-conditions: read-out: LC50 (the source's name)
Parameter: CC50. Scope: all listed entries.

Would you please look over these solved cases?
compound="O=c1[nH]cc(F)c(=O)[nH]1 [FLUOROURACIL]" experimental_target=IGROV-1 val="> 100 µM"
compound=NS(=O)(=O)c1ccc(Nc2nc(N/N=C/c3ccc(C(F)(F)F)cc3)nc(Nc3ccccc3)n2)cc1 experimental_target=IGROV-1 val="53.8 µM"

Consider now this further compound.
Quick one: CC50 for `NS(=O)(=O)c1ccc(Nc2nc(N/N=C/c3ccccn3)nc(Nc3ccccc3)n2)cc1` ?
> 100 µM

----------
Parameter: inhibition of growth at 10 µM. Scope: all listed entries.
# Tested on: BT-549
# experiment: Anticancer activity against human BT-549 cells assessed as cell growth inhibition at 10 uM incubated for 48 hrs by SRB assay relative to control
# Assay type: functional
# protocol-conditions: read-out: GI

Would you please look over these solved cases?
compound_string=NS(=O)(=O)c1ccc(Nc2nc(N/N=C/c3ccc(C(F)(F)F)cc3)nc(Nc3ccccc3)n2)cc1 val=51%
compound_string=NS(=O)(=O)c1ccc(Nc2nc(N/N=C/c3ccccc3)nc(Nc3ccccc3)n2)cc1 val="< 10%"

Quick one: inhibition of growth at 10 µM for `NS(=O)(=O)c1ccc(Nc2nc(N/N=C/CCc3ccccc3)nc(Nc3ccccc3)n2)cc1` ?
< 10%

Quick one: inhibition of growth at 10 µM for `NS(=O)(=O)c1ccc(Nc2nc(N/N=C/c3ccc4c(c3)OCO4)nc(Nc3ccccc3)n2)cc1` ?
23%

Quick one: inhibition of growth at 10 µM for `CCCCc1nc(/C=N/Nc2nc(Nc3ccccc3)nc(Nc3ccc(S(N)(=O)=O)cc3)n2)c(Cl)[nH]1` ?
52%

Quick one: inhibition of growth at 10 µM for `NS(=O)(=O)c1ccc(Nc2nc(N/N=C/c3cccc4ccccc34)nc(Nc3ccccc3)n2)cc1` ?
< 10%

Data provenance is ChEMBL document CHEMBL5154747.
